PROTOCOL_TEXT: protein stability index of a GFP-peptide fusion (yeast GPS) (PSI 1-4); higher = more stable; sorted into four equal gates, so the index is relative within each strain
EXPERIMENTAL_SETUP: ubr1∆
Rule: protein stability index under 3 gives Criterion not met, otherwise Criterion met.

Known results for sequences:
           polymer_sequence         class_name
0  RQVYKPVLDNPFTNEAH [POP3]  Criterion not met
1  QRQDFERVRLRPEQLSN [SNF6]  Criterion not met
2  VEFINKMENFEFLPLSL [SRB8]      Criterion met
3  WQIEEAGNSQITSGGFL [SRB5]      Criterion met
4  LSQNESTRASTVPNLPT [ISW2]  Criterion not met

Check the entry GMTPCTVSPDFVAATTN [FAS1] : does protein stability index equal or exceed 3?
Criterion not met
